Target: Androgen receptor (Rattus norvegicus, UniProt P15207)
Sequence (P15207 whole entry): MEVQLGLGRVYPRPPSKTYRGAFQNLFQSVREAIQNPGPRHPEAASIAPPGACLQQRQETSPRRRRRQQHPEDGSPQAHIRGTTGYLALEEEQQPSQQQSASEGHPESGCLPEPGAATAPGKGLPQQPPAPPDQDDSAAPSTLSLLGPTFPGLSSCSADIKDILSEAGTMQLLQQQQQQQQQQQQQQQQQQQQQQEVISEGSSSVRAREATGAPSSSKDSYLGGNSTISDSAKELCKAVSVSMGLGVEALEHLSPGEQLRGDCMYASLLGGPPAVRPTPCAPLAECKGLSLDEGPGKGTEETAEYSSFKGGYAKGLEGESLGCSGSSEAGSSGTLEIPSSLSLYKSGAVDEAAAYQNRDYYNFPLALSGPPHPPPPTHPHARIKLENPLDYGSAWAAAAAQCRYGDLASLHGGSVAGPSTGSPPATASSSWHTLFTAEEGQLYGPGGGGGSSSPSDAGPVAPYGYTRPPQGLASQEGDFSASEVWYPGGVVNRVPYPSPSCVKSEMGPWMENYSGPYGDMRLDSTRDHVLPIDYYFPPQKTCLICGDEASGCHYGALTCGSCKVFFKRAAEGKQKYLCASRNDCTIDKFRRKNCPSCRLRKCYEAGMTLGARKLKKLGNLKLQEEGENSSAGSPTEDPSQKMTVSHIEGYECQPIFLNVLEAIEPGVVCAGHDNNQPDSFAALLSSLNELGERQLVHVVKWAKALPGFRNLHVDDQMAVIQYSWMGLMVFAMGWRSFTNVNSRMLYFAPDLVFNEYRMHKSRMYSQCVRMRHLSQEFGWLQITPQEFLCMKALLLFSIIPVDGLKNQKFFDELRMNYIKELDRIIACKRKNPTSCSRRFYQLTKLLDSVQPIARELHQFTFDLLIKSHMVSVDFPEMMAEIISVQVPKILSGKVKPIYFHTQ
pIC50: −log10 of the molar value.
List of pIC50 values.

{"columns": ["molecule", "testSystem", "boundType", "pIC50"],
 "data": [
  ["CN1C(=O)CC[C@@]2(C)C1CC[C@H]1[C@@H]3CC[C@H](C(=O)C=[N+]=[N-])[C@@]3(C)CC[C@@H]12 (some centres not stated)", "Androgen receptor (Rattus norvegicus, UniProt P15207)", "=", 6.24],
  ["CN1C(=O)CC[C@@]2(C)C1CC[C@@H]1[C@@H]2CC[C@@]2(C)[C@H]1CC[C@@]21CCCO1 (some centres not stated)", "Androgen receptor (Rattus norvegicus, UniProt P15207)", "=", 6.85],
  ["CCCCCCCCNC(=O)[C@H]1CC[C@H]2[C@@H]3CCC4NC(=O)CC[C@]4(C)[C@H]3CC[C@]12C (some centres not stated)", "Androgen receptor (Rattus norvegicus, UniProt P15207)", "=", 5.28],
  ["CCC(C)C(=O)[C@H]1CC[C@H]2[C@@H]3CCC4N(C)C(=O)CC[C@]4(C)[C@H]3CC[C@]12C (some centres not stated)", "Androgen receptor (Rattus norvegicus, UniProt P15207)", "=", 6.38],
  ["CC(C)N(C(=O)[C@H]1CC[C@H]2[C@@H]3CCC4NC(=O)C=C[C@]4(C)[C@H]3CC[C@]12C)C(C)C (some centres not stated)", "Androgen receptor (Rattus norvegicus, UniProt P15207)", "=", 4.74],
  ["CCN1C(=O)CC[C@@]2(C)C1CC[C@@H]1[C@@H]2CC[C@@]2(C)[C@H]1CC[C@@]21CCCO1 (some centres not stated)", "Androgen receptor (Rattus norvegicus, UniProt P15207)", "=", 4.89],
  ["C[C@]12CC[C@H]3[C@@H](CCC4NC(=O)CC[C@@]43C)[C@@H]1CC[C@@H]2C(=O)[O-].[K+] (some centres not stated)", "Androgen receptor (Rattus norvegicus, UniProt P15207)", "<", 4.00]
]}

====

Parameter: IC50. Scope: all listed entries.
Target: Steroid 5-alpha-reductase (Rattus norvegicus, UniProt P24008+P31214)
Sequence (P24008 whole entry): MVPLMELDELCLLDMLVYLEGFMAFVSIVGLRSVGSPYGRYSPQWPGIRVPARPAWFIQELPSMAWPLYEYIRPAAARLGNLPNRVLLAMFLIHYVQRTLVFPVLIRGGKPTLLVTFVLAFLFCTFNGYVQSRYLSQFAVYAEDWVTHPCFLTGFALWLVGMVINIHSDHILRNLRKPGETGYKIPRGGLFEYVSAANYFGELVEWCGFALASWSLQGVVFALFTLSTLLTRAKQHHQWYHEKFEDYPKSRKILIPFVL
Sequence (P31214 whole entry): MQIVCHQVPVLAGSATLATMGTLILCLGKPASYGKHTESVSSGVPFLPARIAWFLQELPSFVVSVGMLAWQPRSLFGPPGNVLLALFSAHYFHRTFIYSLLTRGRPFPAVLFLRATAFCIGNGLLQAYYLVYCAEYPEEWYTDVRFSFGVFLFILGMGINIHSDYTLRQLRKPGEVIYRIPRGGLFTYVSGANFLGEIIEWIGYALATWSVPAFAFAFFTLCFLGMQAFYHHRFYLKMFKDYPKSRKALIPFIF
Test: In vitro inhibitory activity against rat prostatic steroid 5-alpha-reductase
Type: protein assay
quantityKind: IC50 (nM)

{"columns": ["molecule", "unitAnnotation", "boundType", "obsValue"],
 "data": [
  ["CCN1C(=O)CC[C@@]2(C)C1CC[C@@H]1[C@@H]2CC[C@@]2(C)[C@H]1CC[C@@]21CCCO1 (some centres undefined)", "nM", "=", 1170],
  ["CC(=O)[C@H]1[C@H](C)C[C@H]2[C@@H]3CCC4N(C)C(=O)CC[C@]4(C)[C@H]3CC[C@@]21C (some centres undefined)", "nM", "=", 3.4],
  ["CCN(CC)C(=O)[C@H]1CCC[C@H]2[C@@H]3CC[C@H]4N(C)C(=O)OC[C@]4(C)[C@H]3CC[C@]12C", "nM", "=", 500],
  ["CC(C)(C)NC(=O)[C@H]1CC[C@H]2[C@@H]3CCC4NC(=O)CC[C@]4(C)[C@H]3CC[C@]12C (some centres undefined)", "nM", "=", 6.3],
  ["CCN(CC)C(=O)[C@H]1CC[C@H]2[C@@H]3CC[C@@H]4NC(=O)CC[C@]4(C)[C@H]3CC[C@]12C (stereo in doubt; 79)", "nM", ">", 1000],
  ["CCN(CC)C(=O)[C@H]1CC[C@H]2[C@@H]3CC[C@H]4N(C)C(=O)[C@@H]5C[C@@H]5[C@]4(C)[C@H]3CC[C@]12C", "nM", "=", 20],
  ["COC(CNC(=O)[C@H]1CC[C@H]2[C@@H]3CCC4N(C)C(=O)CC[C@]4(C)[C@H]3CC[C@]12C)OC (some centres undefined)", "nM", "=", 4.6],
  ["CCN(CC)C(=O)C(C)[C@H]1CC[C@H]2[C@@H]3CCC4N(C)C(=O)CC[C@]4(C)[C@H]3CC[C@]12C (some centres undefined)", "nM", "=", 13],
  ["CC(=O)N[C@H]1CC[C@H]2[C@@H]3CCC4N(C)C(=O)CC[C@]4(C)[C@H]3CC[C@]12C (some centres undefined)", "nM", "=", 270],
  ["CC(C)N(C(=O)[C@H]1CC[C@H]2[C@@H]3CC=C4NC(=O)CC[C@]4(C)[C@H]3CC[C@]12C)C(C)C", "nM", "=", 86],
  ["CCCCCCCCNC(=O)[C@H]1CC[C@H]2[C@@H]3CCC4NC(=O)CC[C@]4(C)[C@H]3CC[C@]12C (some centres undefined)", "nM", "=", 0.13],
  ["CCN(CC)C(=O)[C@H]1CC[C@H]2[C@@H]3CC[C@H]4N(C)C(=O)C=C[C@]4(C)[C@H]3CC[C@]12C", "nM", "=", 290],
  ["CCCCCCCCNC(=O)[C@H]1CC[C@H]2[C@@H]3CCC4N(C)C(=O)CC[C@]4(C)[C@H]3CC[C@]12C (some centres undefined)", "nM", "=", 0.21],
  ["CN1C(=O)C=C[C@@]2(C)C1CC[C@@H]1[C@@H]2CC[C@@]2(C)[C@H]1CC[C@@]21CCCO1 (some centres undefined)", "nM", "=", 430]
]}

====

Target: UniProt P15207
Sequence (P15207 whole entry): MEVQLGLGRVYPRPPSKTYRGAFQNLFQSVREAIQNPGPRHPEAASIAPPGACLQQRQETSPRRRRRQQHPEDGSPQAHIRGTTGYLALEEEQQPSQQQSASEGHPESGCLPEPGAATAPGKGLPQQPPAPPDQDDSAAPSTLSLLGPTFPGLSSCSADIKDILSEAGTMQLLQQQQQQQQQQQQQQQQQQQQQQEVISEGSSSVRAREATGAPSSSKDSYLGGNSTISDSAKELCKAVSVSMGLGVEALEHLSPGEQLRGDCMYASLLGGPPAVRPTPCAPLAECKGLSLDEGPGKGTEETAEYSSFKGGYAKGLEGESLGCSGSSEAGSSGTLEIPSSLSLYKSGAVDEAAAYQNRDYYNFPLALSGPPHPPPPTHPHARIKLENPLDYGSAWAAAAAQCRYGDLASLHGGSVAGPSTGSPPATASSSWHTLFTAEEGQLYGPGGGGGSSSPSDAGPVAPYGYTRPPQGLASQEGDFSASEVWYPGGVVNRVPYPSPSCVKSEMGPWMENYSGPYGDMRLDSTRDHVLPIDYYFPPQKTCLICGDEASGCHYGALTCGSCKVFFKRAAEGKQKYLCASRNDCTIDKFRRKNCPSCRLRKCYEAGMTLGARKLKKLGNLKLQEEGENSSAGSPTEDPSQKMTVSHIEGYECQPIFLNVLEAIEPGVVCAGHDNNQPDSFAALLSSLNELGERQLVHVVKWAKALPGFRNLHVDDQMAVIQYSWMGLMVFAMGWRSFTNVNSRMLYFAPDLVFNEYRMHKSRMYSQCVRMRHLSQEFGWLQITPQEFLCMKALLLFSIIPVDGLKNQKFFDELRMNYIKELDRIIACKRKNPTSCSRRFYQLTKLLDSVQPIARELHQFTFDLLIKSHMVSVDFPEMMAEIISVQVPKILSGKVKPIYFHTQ
Note to self: use TRUE only for IC50 readings below 1000 nM; a reading exactly at 1000 nM still gets FALSE.

{"columns": ["compound", "testSystem", "category"],
 "data": [
  ["CCN(CC)C(=O)[C@H]1CC[C@H]2[C@@H]3CC[C@H]4N(C)C(=O)[C@@H](OC)C[C@]4(C)[C@H]3CC[C@]12C", "UniProt P15207", "FALSE"],
  ["CN1C(=O)CC[C@@]2(C)C1CC[C@H]1[C@@H]3CC[C@H](C(=O)NC(C)(C)CO)[C@@]3(C)CC[C@@H]12 (some centres not stated)", "UniProt P15207", "TRUE"],
  ["CN1C(=O)C=C[C@@]2(C)C1CC[C@@H]1[C@@H]2CC[C@@]2(C)[C@H]1CC[C@@]21CCCO1 (some centres not stated)", "UniProt P15207", "TRUE"],
  ["CC(=O)[C@H]1CC[C@H]2[C@@H]3CCC4NC(=O)CC[C@]4(C)[C@H]3CC[C@]12C (some centres not stated)", "UniProt P15207", "FALSE"],
  ["CNC(=O)[C@H]1CC[C@H]2[C@@H]3CC=C4N(C)C(=O)CC[C@]4(C)[C@H]3CC[C@]12C", "UniProt P15207", "TRUE"],
  ["CC(C)N(C(=O)[C@H]1CC[C@H]2[C@@H]3CC=C4NC(=O)CC[C@]4(C)[C@H]3CC[C@]12C)C(C)C", "UniProt P15207", "FALSE"],
  ["COC(=O)C(C)[C@H]1CC[C@H]2[C@@H]3CCC4N(C)C(=O)CC[C@]4(C)[C@H]3CC[C@]12C (some centres not stated)", "UniProt P15207", "TRUE"]
]}

Data origin, for the record: ChEMBL document CHEMBL1123274
